Parameter pIC50: see the listing below.
- Assayed Target: T1, recombinant VEGFR-2 protein (water soluble extracellular site of human VEGFR-2 with Fc of human IgG1 … (human, UniProt P35968 20-764))
- T1 construct: extracellular domain; Bought; not shown: Fc of human IgG1
- T1 sequence (P35968 20-764): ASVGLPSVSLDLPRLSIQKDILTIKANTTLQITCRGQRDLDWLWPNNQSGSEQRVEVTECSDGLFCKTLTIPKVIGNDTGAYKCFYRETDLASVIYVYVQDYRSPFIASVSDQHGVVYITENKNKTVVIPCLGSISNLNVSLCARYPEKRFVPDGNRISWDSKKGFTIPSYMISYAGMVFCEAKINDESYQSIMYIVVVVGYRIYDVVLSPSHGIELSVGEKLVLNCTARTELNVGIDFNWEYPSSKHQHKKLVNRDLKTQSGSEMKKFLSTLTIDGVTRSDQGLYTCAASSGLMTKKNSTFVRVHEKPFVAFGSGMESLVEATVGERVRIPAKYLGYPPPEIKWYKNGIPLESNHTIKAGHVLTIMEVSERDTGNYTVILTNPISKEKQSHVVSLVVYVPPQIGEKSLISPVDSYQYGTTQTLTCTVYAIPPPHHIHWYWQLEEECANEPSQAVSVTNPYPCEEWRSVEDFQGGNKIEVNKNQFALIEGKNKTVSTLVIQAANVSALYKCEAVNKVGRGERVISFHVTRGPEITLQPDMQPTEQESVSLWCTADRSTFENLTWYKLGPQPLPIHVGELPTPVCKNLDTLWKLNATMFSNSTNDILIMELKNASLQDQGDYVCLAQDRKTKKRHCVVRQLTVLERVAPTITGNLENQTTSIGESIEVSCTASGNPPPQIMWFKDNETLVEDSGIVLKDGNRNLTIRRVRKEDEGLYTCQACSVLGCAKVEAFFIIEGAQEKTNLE
- Protocol Summary: competitive ELISA; synergibody titrated with 1 nM VEGFR-2 on coated VEGF 165
Here pIC50 is given on a logarithmic scale as minus log10 of the concentration in mol/L.

Take a look at these entries with their results.
Syn-Ang-VEGFR-15 (other, Chimeric (human IgG1) SAITAng-2-3 with the peptide at the C-terminus of the heavy chain; also called SAITAng-2-3 x DTN11VEGFR-2-5; not shown: human IgG1 heavy chain constant region with Fc region, from the vector; human light chain constant region, printed as 'constant region of human IgG1') heavy (part 1 of 2): DVQLVESGGGLVQPGGSRKLSCAASGFTFSSFGMHWVRQAPEKGLEWVAYISSDSSTIYYADTVKGRFTISRDNPKNTLFLQMTSLRSEDTAMYYCAREGGYDDYYAMDYWGQGTSVTVSS heavy (part 2 of 2): PGSQGYCHLNMRYQWICDSE light: DIQMTQSPASQSASLGESVTITCLASQTIGTWLAWYQQKPGKSPQLLIYAATSLADGVPSRFSGSGSGTKFSFKISSLQAEDFVSYYCQQLYSIPLTFGGGTKLEIK    8.98
Syn-Ang-VEGFR-12 (other, Chimeric (human IgG1) SAITAng-2-3 with the peptide at the C-terminus of the heavy chain; also called SAITAng-2-3 x DTN8VEGFR-2-2; not shown: human IgG1 heavy chain constant region with Fc region, from the vector; human light chain constant region, printed as 'constant region of human IgG1') heavy (part 1 of 2): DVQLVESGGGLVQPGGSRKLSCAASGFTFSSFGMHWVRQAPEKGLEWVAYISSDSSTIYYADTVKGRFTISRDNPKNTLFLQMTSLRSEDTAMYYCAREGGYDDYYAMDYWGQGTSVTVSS heavy (part 2 of 2): EAGKETCGYEWQYCPRP light: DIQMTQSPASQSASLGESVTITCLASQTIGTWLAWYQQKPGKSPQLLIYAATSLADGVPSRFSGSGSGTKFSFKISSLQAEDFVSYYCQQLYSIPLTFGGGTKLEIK    9.07

// switching to the query binder
Suppose we examine the binder Syn-Ang-VEGFR-14 (other, Chimeric (human IgG1) SAITAng-2-3 with the peptide at the C-terminus of the heavy chain; also called SAITAng-2-3 x DTN10VEGFR-2-4; not shown: human IgG1 heavy chain constant region with Fc region, from the vector; human light chain constant region, printed as 'constant region of human IgG1') heavy (part 1 of 2): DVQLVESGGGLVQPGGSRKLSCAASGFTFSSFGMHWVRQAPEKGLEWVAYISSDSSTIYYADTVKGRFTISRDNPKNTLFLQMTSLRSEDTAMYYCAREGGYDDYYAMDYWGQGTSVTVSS heavy (part 2 of 2): TGSGRMCDGSGPPTNCWFT light: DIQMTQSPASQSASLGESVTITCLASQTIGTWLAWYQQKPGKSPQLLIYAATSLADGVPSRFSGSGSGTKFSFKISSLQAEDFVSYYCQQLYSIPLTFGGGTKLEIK ; what pIC50 value has been reported? 9.05

Origin of the recorded values: patent US20110076723A1
